MEASUREMENT_TARGET: Bcl-xL (human, fused to the C-terminus of ADAR2-DD) (human, UniProt Q07817 4-198)
Sequence (Q07817 4-198 limits assumed): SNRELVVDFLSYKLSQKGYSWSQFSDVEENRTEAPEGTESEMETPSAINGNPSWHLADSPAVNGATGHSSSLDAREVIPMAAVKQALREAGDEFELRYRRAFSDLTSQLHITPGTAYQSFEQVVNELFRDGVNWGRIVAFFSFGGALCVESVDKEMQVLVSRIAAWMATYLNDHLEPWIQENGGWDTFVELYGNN
ASSAY_PROCEDURE: cell-based or functional assay
Ends that are not written are not given here.
READOUT_TYPE: median ratio of mNeonGreen to mCherry, flow cytometry, 0 µM A-1331852 (background)
The answer should be a number; do not append a unit.

{"BINDER": "ASGSGTGAPPNLWAAQRYGRELRRMSDEGV (not fully specified)", "DATA_VALUE": 0.1}
{"BINDER": "ASGSGTGAPPNLWAAQRYGRELRRMSDELV (not fully specified (N-terminus, C-terminus); also: part of an expressed fusion protein) [Bad(L) peptide (Bad point mutant F121L, inserted at the 5' RNA binding loop of ADAR2-DD)]", "DATA_VALUE": 0.0389}
{"BINDER": "ASGSGTGAPPNLWAAQRYGRELRRMSDEFV (not fully specified (N-terminus, C-terminus); also: part of an expressed fusion protein) [Bad(F) peptide (BH3 peptide Bad with its linker, as inserted at the 5' RNA binding loop of ADAR2-DD)]", "DATA_VALUE": 0.026}

Here's the next entry for you.
Supply reported median ratio of mNeonGreen to mCherry, flow cytometry, 0 µM A-1331852 (background) belonging to this binder: ASGSGTGAPPNLWAAQRYGRELRRMSDEVV (not fully specified) [BAD(V) peptide (Bad point mutant F121V, inserted at the 5' RNA binding loop of ADAR2-DD)]
0.0708
